What AD50 was measured for each of the following?
molecular target: Kappa-type opioid receptor (Rattus norvegicus); assay: Antagonism of bremazocine induced kappa receptor diuresis in rats at a concentration of 0.08 mg/kg subcutaneously; type: functional, organism-based; parameters: dose 0.08 mg/kg
Report the value in mg/kg with no unit label.

Enquiry: Given the compound `C[C@@H]1CN(CC[C@@H](O)C2CCCCC2)CC[C@]1(C)c1cccc(O)c1` , what is its reported AD50?
Return: 5.2

Enquiry: Which AD50 reading was recorded for the compound C[C@H]1CN(CCCc2cccs2)CC[C@@]1(C)c1cccc(O)c1 (stereo in doubt; 41) ?
Return: 1.18

Enquiry: Entry C[C@H]1CN(CCC(O)C2CCCC2)CC[C@@]1(C)c1cccc(O)c1 (stereo partly drawn) : reported AD50 = ?
Return: 0.99

====

test system: Rattus norvegicus; assay: Tested for concentration required to reduce the food consumption by 20 % subcutaneously; type: functional; settings: Rattus norvegicus, sc; read-out: ED50
result type: log10 of ED50 (log10 of the value in mg/kg)
Answers are given as log10 of ED50 in mg/kg.

Enquiry: Which log10 of ED50 reading was recorded for the compound `C[C@H]1CN(CCCc2ccsc2)CC[C@@]1(C)c1cccc(O)c1` ?
Return: -1.22

Enquiry: I would be grateful if you could share the reported log10 of ED50 for `CC(C)CCCN1CC[C@@](C)(c2cccc(O)c2)[C@@H](C)C1` .
Return: 0.32

Enquiry: Item under review: `C[C@H]1CN(CCCC2CCCCC2)CC[C@@]1(C)c1cccc(O)c1` . Reported log10 of ED50?
Return: -0.92

Enquiry: Give the measured log10 of ED50 of C[C@H]1CN(CCC(O)C2CCCC2)CC[C@@]1(C)c1cccc(O)c1 (stereo partly drawn) .
Return: -1.05

Enquiry: Any idea what its log10 of ED50 is? The compound is `C[C@@H]1CN(CC[C@H](O)C2CCCCC2)CC[C@]1(C)c1cccc(O)c1`
Return: -0.96

Enquiry: Please report the recorded log10 of ED50 for `C=C1CC[C@@]2(O)[C@H]3Cc4ccc(O)c5c4[C@@]2(CCN3CC2CC2)[C@H]1O5` .
Return: 0.18

Enquiry: Entry under review: `CCCCCCN1CC[C@](C)(c2cccc(O)c2)[C@H](C)C1` . Reported log10 of ED50?
Return: 0.07

Enquiry: Recorded log10 of ED50 for `C[C@H]1CN(CCCc2ccccc2)CC[C@@]1(C)c1cccc(O)c1` , please?
Return: 0.11

Enquiry: I am curious: what log10 of ED50 value has been reported for C[C@H]1CN(CCC(O)c2ccccc2)CC[C@@]1(C)c1cccc(O)c1 (stereo partly drawn) ?
Return: -0.30

Enquiry: Name the recorded log10 of ED50 for `CCCCCCCN1CC[C@@](C)(c2cccc(O)c2)[C@@H](C)C1` .
Return: -0.40

Enquiry: # lookup: log10 of ED50 of `C[C@H]1CN(CCC2CCCCC2)CC[C@@]1(C)c1cccc(O)c1`
Return: 0.56
